- TARGET_ENTITY: recombinant mouse GALK1 (Mus musculus)
- Sequence (Q9R0N0 whole entry): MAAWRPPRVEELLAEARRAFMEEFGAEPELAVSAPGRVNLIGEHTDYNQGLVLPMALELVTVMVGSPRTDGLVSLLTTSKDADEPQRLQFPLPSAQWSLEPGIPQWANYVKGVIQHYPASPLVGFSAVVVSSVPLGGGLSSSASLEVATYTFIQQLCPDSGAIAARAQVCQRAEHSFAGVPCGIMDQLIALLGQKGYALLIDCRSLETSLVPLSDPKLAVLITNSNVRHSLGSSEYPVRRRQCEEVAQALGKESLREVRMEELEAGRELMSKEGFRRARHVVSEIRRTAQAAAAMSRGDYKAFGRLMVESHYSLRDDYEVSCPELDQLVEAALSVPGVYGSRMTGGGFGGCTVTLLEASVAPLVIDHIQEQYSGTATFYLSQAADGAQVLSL
- METHOD_SUMMARY: mGALK1 biochemical activity assay (Kinase-Glo Plus, ATP depletion)
- MEASUREMENT_SETUP: Tables 2-15; 35 μM ATP, 100 μM galactose, 1 h; bracketed figure after some values is undefined and not reported; read-out: mGALK IC50
pIC50: −log10 of the molar value.
REPORTED_METRIC: pIC50

{"COMPOUND": "CC1=C(C(=O)Nc2cc(C(=O)O)ccn2)C(c2ccc(C)cc2Cl)N=C(Nc2nc3cnccc3o2)N1 (stereo not shown) [Compound 106]", "pIC50": 5.16}
{"COMPOUND": "COc1cccc(C2N=C(Nc3nc4ccc(F)cc4o3)NC(C)=C2C(=O)Nc2cc(C(=O)O)ccn2)c1Cl (stereo not shown) [Compound 52]", "pIC50": 4.71}

A = CC1=C(C(=O)Nc2cc(C(=O)O)ccn2)C(c2ccccc2Cl)N=C(Nc2nc3cc(N)ccc3o2)N1 (stereo not shown) [Compound 12]
B = COC(=O)c1cccc(NC(=O)C2=C(C)NC(Nc3nc4ccccc4o3)=NC2c2ccccc2Cl)n1 (stereo not shown) [Compound 197]
stdin: // max by pIC50 over [ A , B ] Lab note: record the label of whichever item you select.
stdout: B
(B: 4.91, A: 4.66)
